In this section, each of the substances is paired with its reported Peptide remaining.
assay: Resistance to proteolytic degradation in fetal bovine serum; type: in vitro ADME; settings: 25% fetal bovine serum in water, 37 °C, LC peak area, time 0 = 100; 4 h; replicate 3
No end group written: not given here.
Answer using only a numeral; do not append any unit.

So for SLLSLIRKLIT-NH2 [Decoralin, reference compound] , the logged Peptide remaining turned out to be 0.0

So for ILGTILGLLKGL-NH2 [Protonectin, reference compound] , the logged Peptide remaining turned out to be 0.0

Further cases:
So for SLGALINVLKSGG-NH2 [DV] , the logged Peptide remaining turned out to be 0.0

So for FLGTLWGGAKGVF-NH2 [VP] , the logged Peptide remaining turned out to be 0.0

So for ILGAILNVLKSLG-NH2 [PV] , the logged Peptide remaining turned out to be 0

So for FLGSLWRKAGTVF-NH2 [VD] , the logged Peptide remaining turned out to be 44.7

So for FLGALWNVAKSVF-NH2 [VmCT1, reference compound] , the logged Peptide remaining turned out to be 0.0

###

assay: Mouse body weight in the skin abscess infection model; type: in vivo; conditions: day 0 = 100, Day 1, replicate 3
No end group written: not given here.
In this section, each of the substances is paired with its reported Mouse body weight, normalized to the weight at the beginning of the experiment.
Answer using only a numeral; do not append any unit.

So for FLPLIGRVLSGIL-NH2 [Temporin A, reference compound] , the logged Mouse body weight, normalized to the weight at the beginning of the experiment turned out to be 100

So for FLGALWNVAKSVF-NH2 [VmCT1, reference compound] , the logged Mouse body weight, normalized to the weight at the beginning of the experiment turned out to be 105

So for FLPLLWRVASGVF-NH2 [VT] , the logged Mouse body weight, normalized to the weight at the beginning of the experiment turned out to be 100

Continue with the next substance.
So for FLGAIGNVLKSIL-NH2 [TV] , the logged Mouse body weight, normalized to the weight at the beginning of the experiment turned out to be 100

###

test system: human erythrocytes; assay: Hemolytic activity; assay type: cell-based; conditions: 0.1–100 μmol L^−1 in PBS, room temperature, 1 h, absorbance 405 nm
No end group written: not given here.
Label Satisfied for high-side Hemolytic activity (concentration of peptide needed to kill 10% of red blood cells) (at or above 20 µmol/L) and Not satisfied for low-side Hemolytic activity (concentration of peptide needed to kill 10% of red blood cells) (below it).

Dear colleague, could you confirm whether SLLSLIRKLIT-NH2 [Decoralin, reference compound] has Hemolytic activity (concentration of peptide needed to kill 10% of red blood cells) at or above 20 µmol/L?
Not satisfied

Dear colleague, could you confirm whether GLGALLNVIKSGL-NH2 [AV] has Hemolytic activity (concentration of peptide needed to kill 10% of red blood cells) at or above 20 µmol/L?
Satisfied

Dear colleague, could you confirm whether FLPLIGRVLSGIL-NH2 [Temporin A, reference compound] has Hemolytic activity (concentration of peptide needed to kill 10% of red blood cells) at or above 20 µmol/L?
Not satisfied

Dear colleague, could you confirm whether ILGTILGLLKGL-NH2 [Protonectin, reference compound] has Hemolytic activity (concentration of peptide needed to kill 10% of red blood cells) at or above 20 µmol/L?
Not satisfied

Dear colleague, could you confirm whether SLGALINVLKSGG-NH2 [DV] has Hemolytic activity (concentration of peptide needed to kill 10% of red blood cells) at or above 20 µmol/L?
Not satisfied

Further cases:
Dear colleague, could you confirm whether FLPLLWRVASGVF-NH2 [VT] has Hemolytic activity (concentration of peptide needed to kill 10% of red blood cells) at or above 20 µmol/L?
Not satisfied

###

In this section, each of the substances is paired with its reported Peptide remaining.
Experiment: Resistance to proteolytic degradation in fetal bovine serum
Format: in vitro ADME
Settings: 25% fetal bovine serum in water, 37 °C, LC peak area, time 0 = 100; 2 h; replicate 1
Experimental: Stability assays were performed following the protocol described by Torres et al.[67]. Briefly, a peptide solution was added to GIBCO fetal bovine serum diluted to 25% in water and kept at 37 °C. The degradation kinetics were monitored by liquid chromatography and the percentage of peptide remaining in each case was calculated by integrating the peptide peak area. These experiments were performed as three independent replicates, and aliquots were taken at 0, 0.5, 1, 2, 4, and 6 h.
No end group written: not given here.
Answer using only a numeral; do not append any unit.

# annotated cases, reported Peptide remaining shown
So for FLGALWNVAKSVF-NH2 [VmCT1, reference compound] , the logged Peptide remaining turned out to be 10.5

So for FLPLLWRVASGVF-NH2 [VT] , the logged Peptide remaining turned out to be 0

So for ILGAILNVLKSLG-NH2 [PV] , the logged Peptide remaining turned out to be 0

So for FLPLIGRVLSGIL-NH2 [Temporin A, reference compound] , the logged Peptide remaining turned out to be 0

So for SLGALINVLKSGG-NH2 [DV] , the logged Peptide remaining turned out to be 0.0

So for GLLKRIKTLL-NH2 [Anoplin, reference compound] , the logged Peptide remaining turned out to be 14.2

So for FLGTLWGGAKGVF-NH2 [VP] , the logged Peptide remaining turned out to be 3.6

So for FLGAIGNVLKSIL-NH2 [TV] , the logged Peptide remaining turned out to be 0

So for GLGALLNVIKSGL-NH2 [AV] , the logged Peptide remaining turned out to be 39.7

So for FLGSLWRKAGTVF-NH2 [VD] , the logged Peptide remaining turned out to be 38.2

Continue with the next substance.
So for ILGTILGLLKGL-NH2 [Protonectin, reference compound] , the logged Peptide remaining turned out to be 0.0

###

Test: Resistance to proteolytic degradation in fetal bovine serum
Format: in vitro ADME
Details: fetal bovine serum, 25% in water, 25% fetal bovine serum in water, 37 °C, LC peak area, time 0 = 100; 4 h; replicate 3; read-out: Peptide remaining
Description: Stability assays were performed following the protocol described by Torres et al.[67]. Briefly, a peptide solution was added to GIBCO fetal bovine serum diluted to 25% in water and kept at 37 °C. The degradation kinetics were monitored by liquid chromatography and the percentage of peptide remaining in each case was calculated by integrating the peptide peak area. These experiments were performed as three independent replicates, and aliquots were taken at 0, 0.5, 1, 2, 4, and 6 h.
No end group written: not given here.
OBSERVATION TYPE: remaining at 4 h (%)
Report only the number, with the unit % understood.

So for FLGAIGNVLKSIL-NH2 [TV] , the logged remaining at 4 h turned out to be 0

###

test: Mouse body weight in the skin abscess infection model; assay type: in vivo; conditions: day 0 = 100, Day 1, replicate 2
No end group written: not given here.
OBSERVATION TYPE: Mouse body weight, normalized to the weight at the beginning of the experiment
Answer using only a numeral; do not append any unit.

# annotated cases, reported Mouse body weight, normalized to the weight at the beginning of the experiment shown
So for FLGAIGNVLKSIL-NH2 [TV] , the logged Mouse body weight, normalized to the weight at the beginning of the experiment turned out to be 90

So for FLPLIGRVLSGIL-NH2 [Temporin A, reference compound] , the logged Mouse body weight, normalized to the weight at the beginning of the experiment turned out to be 105

So for FLPLLWRVASGVF-NH2 [VT] , the logged Mouse body weight, normalized to the weight at the beginning of the experiment turned out to be 100

Further cases:
So for FLGALWNVAKSVF-NH2 [VmCT1, reference compound] , the logged Mouse body weight, normalized to the weight at the beginning of the experiment turned out to be 100

###

assay: Resistance to proteolytic degradation in fetal bovine serum; assay type: in vitro ADME; conditions: 25% fetal bovine serum in water, 37 °C, LC peak area, time 0 = 100; 6 h; replicate 3
No end group written: not given here.
OBSERVATION TYPE: Peptide remaining

# annotated cases, reported Peptide remaining shown
So for GLLKRIKTLL-NH2 [Anoplin, reference compound] , the logged Peptide remaining turned out to be 0.0

So for FLGSLWRKAGTVF-NH2 [VD] , the logged Peptide remaining turned out to be 0.0

So for SLGALINVLKSGG-NH2 [DV] , the logged Peptide remaining turned out to be 0.0

Further cases:
So for FLGALWNVAKSVF-NH2 [VmCT1, reference compound] , the logged Peptide remaining turned out to be 0.0

So for FLPLLWRVASGVF-NH2 [VT] , the logged Peptide remaining turned out to be 0

So for GLGALLNVIKSGL-NH2 [AV] , the logged Peptide remaining turned out to be 0.0

So for ILGAILNVLKSLG-NH2 [PV] , the logged Peptide remaining turned out to be 0

###

assay: Mouse body weight in the skin abscess infection model; assay type: in vivo; conditions: day 0 = 100, Day 3, replicate 2
No end group written: not given here.
In this section, each of the substances is paired with its reported Mouse body weight, normalized to the weight at the beginning of the experiment.
Answer using only a numeral; do not append any unit.

# annotated cases, reported Mouse body weight, normalized to the weight at the beginning of the experiment shown
So for FLGALWNVAKSVF-NH2 [VmCT1, reference compound] , the logged Mouse body weight, normalized to the weight at the beginning of the experiment turned out to be 100

So for FLPLIGRVLSGIL-NH2 [Temporin A, reference compound] , the logged Mouse body weight, normalized to the weight at the beginning of the experiment turned out to be 100

Further cases:
So for FLPLLWRVASGVF-NH2 [VT] , the logged Mouse body weight, normalized to the weight at the beginning of the experiment turned out to be 100

So for FLGAIGNVLKSIL-NH2 [TV] , the logged Mouse body weight, normalized to the weight at the beginning of the experiment turned out to be 95
